Reference source for all entries: paper PMC12652692

# Tested on: MDA-MB-435
# test_details: NCI60 five-dose screen
# Format: cell-based
# measurement_conditions: Homo sapiens; MDA-MB-435, Melanoma
Rule: GI50 below 300 nM gives T, anything at or above gives F.

For orientation, consider the following solved cases.
Request: Please let me know if COc1ccc([P+](CCCCOc2cc(O)c3c(=O)cc(-c4ccccc4)oc3c2)(c2ccc(OC)cc2)c2ccc(OC)cc2)cc1 [3c] shows GI50 below 300 nM.
Response: F

Request: # check: GI50 < 300 nM for O=c1cc(-c2ccccc2)oc2cc(OCCCC[P+](c3ccc(F)cc3)(c3ccc(F)cc3)c3ccc(F)cc3)cc(O)c12 [3d]
Response: F

Request: Field: below-cutoff. Rule: recorded GI50 strictly less than 300 nM. Subject: O=c1cc(-c2ccccc2)oc2cc(OCCCC[P+](C3CCCCC3)(C3CCCCC3)C3CCCCC3)cc(O)c12 [3e]
Response: F

Request: Here's an entry: O=c1cc(-c2ccccc2)oc2cc(OCCCC[P+](c3ccccc3)(c3ccccc3)c3ccccn3)cc(O)c12 [3h] . Is its GI50 below 300 nM?
Response: F

Request: Identify whether the compound Cc1ccccc1[P+](CCCCOc1cc(O)c2c(=O)cc(-c3ccccc3)oc2c1)(c1ccccc1C)c1ccccc1C [3g] records GI50 below 300 nM.
Response: F

Query compound follows.
Request: Hi there! Is GI50 for Cc1ccc([P+](CCCCOc2cc(O)c3c(=O)cc(-c4ccccc4)oc3c2)(c2ccc(C)cc2)c2ccc(C)cc2)cc1 [3b] below 300 nM, do you know?
Response: T
